Below is a list of entries, each paired with its recorded IC50 value.
Tested on: TMD8 cells
Protocol Notes: Cell proliferation inhibition in vitro, TMD8 cells by CCK-8 method
Format: cell-based
Assay Conditions: Homo sapiens, 72 hours, read-out: Inhibitions of cell activities IC50 (nM) TMD8
Procedure: Test Example 2: Determination of the Inhibition of Cell Proliferation Inhibitory Activity in vitro of compounds using different cell lines 2: Preparation of the Compounds: […] Logarithmic growth phase cells were collected, counted and resuspended in complete medium. The cell concentration was adjusted to a suitable concentration (determined according to the cell density optimization test results), and seeded to 96-well plate and 100 μl of the cell suspension was added to each well. […]
Supply the numeric figure in nM, leaving out any unit text.

Note to self: IC50 of C=CC(=O)N1[C@H]2CC[C@@H]1[C@@H](c1nc(-c3ccc(C(=O)Nc4ccccn4)cc3)c3c(N)nccn13)C2 [Example 118] with TMD8 cells was 3.9

New cases:
Form field, IC50 with TMD8 cells, item C=CC(=O)N1C[C@H]2[C@@H]([C@H]1c1nc(-c3ccc(C(=O)Nc4ccccn4)cc3)c3c(N)nccn13)C2(C)C [Example 5] : 3.6

IC50 for TMD8 cells with input C=CC(=O)N1CC2(CC2)C[C@H]1c1nc(-c2ccc(Oc3ccccc3)cc2)c2c(N)nccn12 [Example 93] equals 0.65
